assay method text: kinase inhibitors against Plasmodium liver-stage infection, cell-based, known kinase inhibitor set, luminescence, hepatoma host viability (AID 624392);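 further: infected cells incubated roughly two days before readout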
test settings: Plasmodium liver stage in hepatoma cells, luciferase luminescence, concentration not given here; measured here: host liver cell viability
The entries below are paired with their reported liver cell % of control.

molecule	unit label	liver cell % of control
COc1ccc(OC)c(C2=C(c3cn(C)c4ccccc34)C(=O)NC2=O)c1	%	105
CCn1c(-c2nonc2N)nc2ccccc21	%	97.5
COc1cc2ncn(-c3cc(O[C@H](C)c4ccccc4Cl)c(C(N)=O)s3)c2cc1OC	%	137
Cn1c(=O)c(Oc2ccc(F)cc2F)cc2cnc(NC3CCS(=O)(=O)CC3)nc21	%	106
O=C1NC(=NC2CC2c2ccccc2)SC1=Cc1ccc2ncccc2c1 (stereo unspecified)	%	193
OCCn1c(-c2ccncc2)c(-c2ccc(F)cc2)c2ncccc21	%	114
Fc1cccc(COc2ccc(Nc3ncnc4sc(-c5cccs5)cc34)cc2Cl)c1	%	71.8
Nc1c(C(=O)c2cccc(-c3ccc[n+]([O-])c3)c2)cnn1-c1ccc(F)cc1F	%	105
Cn1c(=O)c(Cc2ccc(F)cc2F)cc2cnc(NC3CCOCC3)nc21	%	103
CC1=C(C(=O)Nc2ccc3[nH]ncc3c2)C(c2ccc(Cl)c(Cl)c2)CC(=O)N1 (stereo unspecified)	%	100
CC(C)=Cc1cccc2[nH]c(O)c(N=Nc3ccc(S(N)(=O)=O)cc3)c12	%	77.9
N#Cc1cccc(Nc2ncc(-c3ccccc3)o2)c1	%	108
NS(=O)(=O)c1cccc(NC2CC(c3ccc(F)cc3)NN2)c1 (stereo unspecified)	%	86.1
Cn1c(=O)c(Oc2ccccc2F)cc2cnc(NC3CCOCC3)nc21	%	116
COCC(N=C1NC(=O)C(=Cc2ccc3ncccc3c2)S1)c1ccccc1 (stereo unspecified)	%	98.8
COc1ccc(C2=C(c3cn(C)c4ccccc34)C(=O)NC2=O)cc1	%	131
COc1cc2ncn(-c3cc(OCc4cccs4)c(C(N)=O)s3)c2cc1OC	%	107
Cn1cc(C2=C(c3cn(CCCO)c4ccccc34)C(=O)NC2=O)c2ccccc21	%	101
COc1cc2c(cc1Nc1nc(N3CCc4ccccc43)c3cc[nH]c3n1)N(C(=O)CN(C)C)CC2	%	75
Nc1c(C(=O)c2cccc(CCS(N)(=O)=O)c2)cnn1-c1ccc(F)cc1	%	92.4
CCCN1CCCC(c2ccc(Nc3nc(Nc4cc(F)ccc4C(N)=O)c4cc[nH]c4n3)c(OC)c2)C1 (stereo unspecified)	%	71
